// reported IC50 for each item listed
Target: UniProtKB Q16832
Assay: DDR2 cell based assay (phospho-ELISA in HEK293T-DDR2 recombinant cells)
Conditions: DDR2 phosphorylation, Type II Collagen stimulation, potency class, read-out: IC50DDR2

The following molecules have reported results that may help.
CN(C)CC(=O)Nc1cncc(CN2CCc3c(C(=O)Nc4cccc(C(F)(F)F)c4)csc3C2)c1 [Example 31] :: 25 to 50 nM
Cn1cc(Nc2ncc(CN3CCc4c(C(=O)Nc5cccc(C(F)(F)F)c5)csc4C3)cn2)cn1 [Example 18] :: < 25 nM
Cn1nc(NC(=O)c2csc3c2CCN(Cc2cnc(N)nc2)C3)cc1C(C)(C)C [Example 63] :: < 25 nM

May I ask what IC50 has been recorded for CC(=O)Nc1ncc(CN2CCc3c(C(=O)Nc4cc(F)cc(C(F)(F)F)c4)csc3C2)cn1 [Example 39] ? 25 to 50 nM

###

Molecular target: UniProt:Q08345
Sequence (Q08345 19-913): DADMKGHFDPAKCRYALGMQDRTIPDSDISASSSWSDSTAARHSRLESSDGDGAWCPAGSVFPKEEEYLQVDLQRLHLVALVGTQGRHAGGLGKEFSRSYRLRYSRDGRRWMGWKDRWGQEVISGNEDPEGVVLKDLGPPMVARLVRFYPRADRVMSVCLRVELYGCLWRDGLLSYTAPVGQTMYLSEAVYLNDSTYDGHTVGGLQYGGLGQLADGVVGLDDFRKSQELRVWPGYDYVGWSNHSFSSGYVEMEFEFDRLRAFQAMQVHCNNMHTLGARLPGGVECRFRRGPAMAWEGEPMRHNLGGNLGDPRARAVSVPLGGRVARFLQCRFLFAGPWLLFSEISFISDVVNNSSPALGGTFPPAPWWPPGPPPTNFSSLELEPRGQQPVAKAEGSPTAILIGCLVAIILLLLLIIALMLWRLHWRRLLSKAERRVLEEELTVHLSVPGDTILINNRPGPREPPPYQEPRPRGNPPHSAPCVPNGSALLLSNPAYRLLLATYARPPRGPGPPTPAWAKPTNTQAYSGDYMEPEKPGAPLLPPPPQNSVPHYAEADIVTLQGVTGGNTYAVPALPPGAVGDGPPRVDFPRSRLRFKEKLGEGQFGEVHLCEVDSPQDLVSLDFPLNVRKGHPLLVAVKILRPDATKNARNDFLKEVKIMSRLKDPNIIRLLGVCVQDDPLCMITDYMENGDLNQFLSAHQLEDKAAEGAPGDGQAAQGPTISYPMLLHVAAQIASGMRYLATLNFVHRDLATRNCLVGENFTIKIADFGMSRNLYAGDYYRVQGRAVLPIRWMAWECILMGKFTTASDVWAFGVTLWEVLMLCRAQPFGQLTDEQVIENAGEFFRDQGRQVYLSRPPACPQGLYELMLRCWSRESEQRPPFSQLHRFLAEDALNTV
REPORTED_PROPERTY: IC50

O=C(Nc1cncc(C(F)(F)F)c1)c1csc2c1CCN(Cc1cccnc1)C2 :: 25 to 50 nM
N#Cc1cncc(CN2CCc3c(C(=O)Nc4cccc(C(F)(F)F)c4)csc3C2)c1 :: 25 to 50 nM
Cn1nc(C(C)(C)C)cc1NC(=O)c1csc2c1CCN(Cc1cnc(N)nc1)C2 :: 25 to 50 nM
O=C(Nc1cccc(C(F)(F)F)c1)c1csc2c1CCN(Cc1cncc(N3CCS(=O)(=O)CC3)c1)C2 :: 50 to 80 nM
O=C(Nc1cc(F)cc(OC(F)F)c1)c1csc2c1CCN(Cc1cncnc1)C2 :: 25 to 50 nM

Let us move to another entry and its IC50.
Please report the recorded IC50 for "Nc1nccnc1CN1CCc2c(C(=O)Nc3cccc(C(F)(F)F)c3)csc2C1" . < 25 nM

###

Target: DDR2 (Homo sapiens (Human))
Sequence (Q16832 22-855): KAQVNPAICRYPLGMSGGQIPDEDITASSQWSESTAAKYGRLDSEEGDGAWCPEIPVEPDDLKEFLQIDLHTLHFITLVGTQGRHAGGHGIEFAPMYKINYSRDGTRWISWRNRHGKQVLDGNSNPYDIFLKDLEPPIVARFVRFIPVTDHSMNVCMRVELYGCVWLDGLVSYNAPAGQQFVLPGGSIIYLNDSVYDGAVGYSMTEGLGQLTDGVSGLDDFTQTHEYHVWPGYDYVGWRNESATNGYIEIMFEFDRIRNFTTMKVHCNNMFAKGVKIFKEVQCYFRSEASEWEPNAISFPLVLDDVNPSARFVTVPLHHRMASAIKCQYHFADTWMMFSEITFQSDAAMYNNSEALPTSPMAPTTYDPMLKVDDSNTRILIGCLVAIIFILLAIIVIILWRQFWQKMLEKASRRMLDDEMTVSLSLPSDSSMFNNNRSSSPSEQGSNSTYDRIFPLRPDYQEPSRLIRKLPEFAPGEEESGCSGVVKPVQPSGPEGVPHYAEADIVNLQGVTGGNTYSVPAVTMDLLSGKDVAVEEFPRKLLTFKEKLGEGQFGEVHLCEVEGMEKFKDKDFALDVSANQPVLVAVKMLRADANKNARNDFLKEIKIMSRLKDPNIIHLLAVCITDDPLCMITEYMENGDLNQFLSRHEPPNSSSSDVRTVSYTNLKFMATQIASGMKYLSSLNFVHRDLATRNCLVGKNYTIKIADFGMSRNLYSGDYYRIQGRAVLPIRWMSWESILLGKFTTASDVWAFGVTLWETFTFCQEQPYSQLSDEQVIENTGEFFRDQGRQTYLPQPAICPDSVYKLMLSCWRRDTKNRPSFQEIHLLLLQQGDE
Experiment: DDR2 binding assay (LanthaScreen Europium Kinase Binding assay)
Details: potency class, read-out: Ki DDR2
pKi: −log10 of the molar value.
REPORTED_PROPERTY: pKi

Nc1ncc(CN2CCc3c(C(=O)Nc4cncc(OC(F)(F)F)c4)csc3C2)cn1 :: > 7.60
Nc1nccnc1CN1CCc2c(C(=O)Nc3cc(F)cc(C(F)(F)F)c3)csc2C1 :: > 7.60
Nc1nccnc1CN1CCc2c(C(=O)Nc3cncc(C(F)(F)F)c3)csc2C1 :: > 7.60
CN1CCN(Cc2cc(NC(=O)c3csc4c3CCN(Cc3cncnc3)C4)cc(C(F)(F)F)c2)CC1 :: 7.10 to 7.30
O=C(Nc1cccc(C(F)(F)F)c1)c1csc2c1CCN(Cc1cccnc1)C2 :: > 7.60
N#Cc1cncc(CN2CCc3c(C(=O)Nc4cccc(C(F)(F)F)c4)csc3C2)c1 :: > 7.60

Report pKi for "Cc1nc(N)ncc1CN1CCc2c(C(=O)Nc3cc(F)cc(C(F)(F)F)c3)csc2C1" please. > 7.60

Which measured pKi value corresponds to "CN(C)[C@@H]1CCN(Cc2cc(NC(=O)c3csc4c3CCN(Cc3cncc(-c5cnn(C)c5)c3)C4)cc(C(F)(F)F)c2)C1" ? > 7.60

// lookup pKi for "CN(C)[C@@H]1CCN(Cc2cc(NC(=O)c3csc4c3CCN(Cc3cncnc3OC3CC3)C4)cc(C(F)(F)F)c2)C1" > 7.60

pKi for "Nc1ncc(CN2CCc3c(C(=O)Nc4cc(F)cc(C(F)(F)F)c4)csc3C2)cn1" ? > 7.60

Field request: pKi | item: "O=C(Nc1cc(F)cc(OC(F)(F)F)c1)c1csc2c1CCN(Cc1cncnc1)C2" > 7.60

Please report the recorded pKi for "Cn1cc(Nc2ncc(CN3CCc4c(C(=O)Nc5cccc(C(F)(F)F)c5)csc4C3)cn2)cn1" . > 7.60

Need pKi, item "COc1cncc(CN2CCc3c(C(=O)Nc4cc(C(C)(C)C)no4)csc3C2)c1" > 7.60

Requested read-out: pKi. Entry: "Cn1nc(C(C)(C)C)cc1NC(=O)c1csc2c1CCN(Cc1nccnc1N)C2" > 7.60

Value lookup for pKi; key = "O=C(Nc1cccc(C(F)(F)F)c1)c1csc2c1CCN(Cc1cncc(F)c1)C2" > 7.60

Value lookup for pKi; key = "O=C(Nc1ccc(F)c(C(F)(F)F)c1)c1csc2c1CCN(Cc1cncnc1)C2" > 7.60

# get_value(readout='pKi', item= "O=C(Nc1cccc(OC(F)F)c1)c1csc2c1CCN(Cc1cncnc1)C2" ) > 7.60
